molecular target: TRIM33α PHD-BRD (Homo sapiens, UniProt Q9UPN9); assay: AlphaScreen dose-response displacement of biotinylated H3 peptide; settings: TRIM33α IC50 (AlphaScreen), peptide in assay H31-27K18Ac (BRD)
testReadout: IC50 (µM)

a: COC(=O)c1ccc2nc(-c3c[nH]c(C)n3)c(NC3CCCCC3)n2c1
b: Cc1nc[nH]c1-c1nc2ccccn2c1NC1CCCCC1
c: COc1ccc(Nc2c(-c3[nH]cnc3C)nc3ccc(Br)cn23)cc1
Which order do these items fall in when sorted by IC50 from largest to smallest? Order the labels as requested and list them.
a, b, c

====

Target: TRIM33β PHD-BRD (Homo sapiens, UniProt Q9UPN9)
Sequence (Q9UPN9 888-1110 isoform Q9UPN9-2 limits assumed): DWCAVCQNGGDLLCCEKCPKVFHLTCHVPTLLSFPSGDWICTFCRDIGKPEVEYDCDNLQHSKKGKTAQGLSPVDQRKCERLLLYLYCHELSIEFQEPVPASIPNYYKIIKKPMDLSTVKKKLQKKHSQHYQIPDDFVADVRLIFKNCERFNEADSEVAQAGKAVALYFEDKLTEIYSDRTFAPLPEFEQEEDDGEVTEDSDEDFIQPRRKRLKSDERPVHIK
Test: AlphaScreen dose-response displacement of biotinylated H3 peptide
Settings: peptide in assay H31-27K9Me3 (PHD)
testReadout: IC50 (µM)

Cc1nc[nH]c1-c1nc2ccccn2c1NC1CCCCC1 = 3.37

1: COC(=O)c1ccc2nc(-c3c[nH]c(C)n3)c(NC3CCCCC3)n2c1
2: COc1ccc(Nc2c(-c3[nH]cnc3C)nc3ccc(Br)cn23)cc1
From the items above, decide which of 1 and 2 has the lower IC50 reading. Kindly give the label for the entry you pick.
2
